# method: soluble on expression in E. coli; label from the status in PepcDB or PDB records
metric name: soluble on expression in E. coli

- SLRQIRTVIQYQTVRYDILPLSPVSRNRLAQVKRKILVLDLDETLIHSHHDGVLRPTVRPGTPPDFILKVVIDKHPVRFFVHKRPHVDFFLEVVSQWYELVVFTASMEIYGSAVADKLDNSRSILKRRYYRQHCTLELGSYIKDLSVVHSDLSSIVILDNSPGAYRSHPDNAIPIKSWFSDPSDTALLNLLPMLDALRFTADVRSVLSRNLHQHRLW: soluble
- SLEGWGRGLAMFYIRRVETPEGLVMVLVTDEDVMERAVYDEERGVRIIVSRSFYGGSLGTEADAIKTIEKADIIVLTGEKSVSIGVRMGLVNPDSVLEVKGIKQVQVFKFSY: soluble
